tested on: NL-RLuc virus (recombinant HIV NL4-3 with Renilla Luciferase) in MT-2 cells; assay: Inhibition of HIV replication (NL-RLuc virus in MT-2 cells, luciferase readout); type: cell-based, human immunodeficiency virus (HIV); conditions: MT2, 120 h, NL-RLuc virus infecting MT-2 cells, 5 days of incubation, 10% FBS, luciferase quantitation; at least 2 experiments
pEC50: −log10 of the molar value.
Given measured pEC50, output Y if it is greater than or equal to 8 and N if not.

## Input Check this compound for pEC50 at or above 8: Cc1nc2cc3nn2c(c1[C@H](OC(C)(C)C)C(=O)O)N1CCC(C)(CC1)OCC=CC[C@H](C)Oc1ccc(F)cc1COC3 [Example 27]
## Output N

## Input Test whether the compound Cc1nc2cc3nn2c(c1[C@H](OC(C)(C)C)C(=O)O)N1CCC(C)(CC1)OCCCCOC(CC(C)C)c1cn(nn1)C3 (stereo partly drawn) [Example 12] records pEC50 of 8 or higher.
## Output N

## Input Tell me whether pEC50 is at least 8 here: Cc1ccc2c(c1)COCc1cc3nc(C)c([C@H](OC(C)(C)C)C(=O)O)c(n3n1)N1CCC(C)(CC1)OCCCC[C@H](C)O2 [Example 30]
## Output N

Continue with the compound presented below.
## Input Does pEC50 meet or surpass 8 for Cc1nc2cc3nn2c(c1[C@H](OC(C)(C)C)C(=O)O)N1CCC(C)(CC1)OCCCCc1cc(F)ccc1COC3 [Example 66] ?
## Output Y
